Target: human NaV 1.8 (Homo sapiens, UniProt Q9Y5Y9)
Sequence (Q9Y5Y9 whole entry, looked up): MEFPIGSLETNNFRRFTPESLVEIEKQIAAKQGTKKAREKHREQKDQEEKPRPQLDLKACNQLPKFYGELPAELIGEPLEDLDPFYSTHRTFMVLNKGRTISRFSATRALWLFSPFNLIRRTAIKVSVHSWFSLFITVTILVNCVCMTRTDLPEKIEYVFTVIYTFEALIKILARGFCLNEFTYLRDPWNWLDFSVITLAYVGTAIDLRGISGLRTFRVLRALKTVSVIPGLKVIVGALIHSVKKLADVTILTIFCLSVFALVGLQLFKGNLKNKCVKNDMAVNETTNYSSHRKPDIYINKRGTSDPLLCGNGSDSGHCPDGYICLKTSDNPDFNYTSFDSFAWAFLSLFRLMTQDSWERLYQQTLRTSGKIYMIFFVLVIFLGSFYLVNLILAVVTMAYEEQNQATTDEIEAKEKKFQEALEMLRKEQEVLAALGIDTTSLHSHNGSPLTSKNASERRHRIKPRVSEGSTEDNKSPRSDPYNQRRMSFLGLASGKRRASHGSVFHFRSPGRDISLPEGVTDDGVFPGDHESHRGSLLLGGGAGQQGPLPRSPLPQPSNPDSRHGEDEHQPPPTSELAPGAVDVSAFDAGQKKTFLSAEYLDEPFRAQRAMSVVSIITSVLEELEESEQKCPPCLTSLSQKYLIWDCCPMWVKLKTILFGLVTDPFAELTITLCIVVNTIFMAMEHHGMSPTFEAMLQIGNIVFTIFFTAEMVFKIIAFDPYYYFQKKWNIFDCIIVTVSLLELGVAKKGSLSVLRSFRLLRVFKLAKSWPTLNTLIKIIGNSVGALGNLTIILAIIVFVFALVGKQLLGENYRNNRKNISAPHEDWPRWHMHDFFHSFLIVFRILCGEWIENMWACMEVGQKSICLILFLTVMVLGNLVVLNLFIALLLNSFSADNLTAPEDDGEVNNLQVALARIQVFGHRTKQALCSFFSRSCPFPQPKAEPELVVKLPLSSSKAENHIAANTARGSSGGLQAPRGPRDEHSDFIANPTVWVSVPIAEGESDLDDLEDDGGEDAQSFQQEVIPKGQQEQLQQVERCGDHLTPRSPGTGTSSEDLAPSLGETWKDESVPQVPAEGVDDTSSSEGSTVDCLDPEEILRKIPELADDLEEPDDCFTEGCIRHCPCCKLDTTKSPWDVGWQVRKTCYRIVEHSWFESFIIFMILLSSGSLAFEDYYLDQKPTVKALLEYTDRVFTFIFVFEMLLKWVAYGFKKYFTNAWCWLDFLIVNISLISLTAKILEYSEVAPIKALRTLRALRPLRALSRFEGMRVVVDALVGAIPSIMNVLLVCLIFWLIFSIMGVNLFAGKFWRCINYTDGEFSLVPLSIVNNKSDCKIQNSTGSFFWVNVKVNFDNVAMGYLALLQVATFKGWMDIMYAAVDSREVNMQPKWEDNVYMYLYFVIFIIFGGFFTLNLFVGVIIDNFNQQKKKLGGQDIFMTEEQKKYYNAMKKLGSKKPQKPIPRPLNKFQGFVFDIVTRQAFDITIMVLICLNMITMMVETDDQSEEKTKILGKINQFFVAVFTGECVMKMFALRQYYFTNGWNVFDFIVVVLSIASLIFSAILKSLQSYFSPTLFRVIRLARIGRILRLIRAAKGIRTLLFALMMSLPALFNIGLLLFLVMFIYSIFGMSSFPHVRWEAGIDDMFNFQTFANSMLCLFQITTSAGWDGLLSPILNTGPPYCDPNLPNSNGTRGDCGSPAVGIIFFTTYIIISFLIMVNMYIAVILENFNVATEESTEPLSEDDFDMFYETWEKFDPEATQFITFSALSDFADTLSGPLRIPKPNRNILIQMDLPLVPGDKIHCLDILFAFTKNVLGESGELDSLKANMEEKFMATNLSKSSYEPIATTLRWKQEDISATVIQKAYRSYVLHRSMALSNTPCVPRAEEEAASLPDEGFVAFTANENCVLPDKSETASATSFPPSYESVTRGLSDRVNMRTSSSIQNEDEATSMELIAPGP
Assay: E-VIPR assay for detecting and measuring NaV inhibition properties
Format: cell-based
Conditions: E-VIPR assay conducted in the presence of human serum; HEK cells expressing truncated human NaV 1.8; read-out: IC50
From the text: Sodium ion channels are voltage-dependent proteins that can be activated by inducing membrane voltage changes by applying electric fields. The electrical stimulation instrument and methods of use, referred to as E-VIPR, are described in International Publication No. WO 2002/008748 A3 and C.-J. Huang et al. Characterization of voltage-gated sodium channel blockers by electrical stimulation and fluorescence detection of membrane potential, 24 Nature Biotech. […]
ASSAY_ENDPOINT: IC50 (nM)

Look over these answered cases.
MOLECULE	IC50 [nM]
Cc1c(C(F)(F)F)ccc(Oc2ccc(OC(F)(F)F)c(F)c2)c1C(=O)Nc1ccnc(C(N)=O)c1	33
COc1cc(OC(F)(F)F)ccc1Oc1ccc(C(F)(F)F)c(C)c1C(=O)Nc1ccnc(C(N)=O)c1	4
CC(C)Oc1ccc(Oc2cccc(C(F)(F)F)c2C(=O)Nc2ccnc(C(N)=O)c2)cc1F	1200
COc1cc(OC(F)(F)F)ccc1Oc1cc(C(C)(C)C)cc(C)c1C(=O)Nc1ccnc(C(N)=O)c1	93
COc1cc(Oc2ccc(OC(F)(F)F)cc2Cl)c(C(=O)Nc2ccnc(C(N)=O)c2)c(F)c1C(F)(F)F	5

1 = COc1cc(OC(F)(F)F)ccc1Oc1cc(OC2C=C(F)C2)cc(C)c1C(=O)Nc1ccnc(C(N)=O)c1 (stereo not drawn)
2 = COc1cc(OC(F)(F)F)ccc1Oc1cc(F)c(F)c(F)c1C(=O)Nc1cnc(C(N)=O)nc1
Query: Field: entry with larger IC50 (options 1 / 2 ). Write the label of whichever entry you select.
Result: 1
(1: 170 nM, 2: 50 nM)

A = [2H]C([2H])([2H])Oc1cc(OC(F)(F)F)ccc1Oc1cc(-c2ccc(C#N)cc2)cc(F)c1C(=O)Nc1ccnc(C(N)=O)c1
B = COc1c(Oc2cnc(C(F)(F)F)c(C)c2C(=O)Nc2cnc(C(N)=O)nc2)ccc(OC(F)(F)F)c1F
C = NC(=O)c1cc(NC(=O)c2ccc(C(F)(F)F)cc2Oc2ccc(F)c(Cl)c2)ccn1
Query: Kindly order the items shown according to IC50, from the highest value down. A ranking is expressed here by listing the labels in the requested order.
Result: C, A, B
(C: 2380 nM, A: 190 nM, B: 15.5 nM)

###

Target: human NaV 1.8 (Homo sapiens)
Experiment: E-VIPR assay for detecting and measuring NaV inhibition properties
Type: cell-based
Settings: E-VIPR assay conducted in the presence of human serum; HEK cells expressing truncated human NaV 1.8; read-out: IC50
Text: Sodium ion channels are voltage-dependent proteins that can be activated by inducing membrane voltage changes by applying electric fields. The electrical stimulation instrument and methods of use, referred to as E-VIPR, are described in International Publication No. WO 2002/008748 A3 and C.-J. Huang et al. Characterization of voltage-gated sodium channel blockers by electrical stimulation and fluorescence detection of membrane potential, 24 Nature Biotech. […]
pIC50: −log10 of the molar value.
ASSAY_ENDPOINT: pIC50

Guide cases for pIC50, answers given:
MOLECULE	TARGET_UNDER_TEST	pIC50
NC(=O)c1cc(NC(=O)c2c(Oc3ccc(F)c(F)c3)ccc(C(F)(F)F)c2F)ccn1 [Compound 24]	human NaV 1.8 (Homo sapiens)	6.70
COc1cc(OC(F)(F)F)ccc1Oc1cc(C2CCC(C(F)(F)F)CC2)cc(F)c1C(=O)Nc1ccnc(C(N)=O)c1 (single isomer, unassigned) [168 (second diastereomer)]	human NaV 1.8 (Homo sapiens)	8.00

1 = Cc1c(Oc2ccc(OC(F)(F)F)c(F)c2C(=O)Nc2ccnc(C(N)=O)c2)ccc(OC(F)(F)F)c1F [Compound 294]
2 = Cc1cc(OC(F)(F)F)ccc1Oc1ccc(C(F)(F)F)c(F)c1C(=O)Nc1ccc(C(N)=O)nc1 [Compound 222]
Query: Higher pIC50 between 1 and 2 ? Identify your pick by its label.
Result: 1
(1: 8.17, 2: 6.92)

Source of measurements: patent US12441703B2
